# Target Of Assay: Hck (UniProt P08631)
# Sequence (P08631 whole entry, looked up): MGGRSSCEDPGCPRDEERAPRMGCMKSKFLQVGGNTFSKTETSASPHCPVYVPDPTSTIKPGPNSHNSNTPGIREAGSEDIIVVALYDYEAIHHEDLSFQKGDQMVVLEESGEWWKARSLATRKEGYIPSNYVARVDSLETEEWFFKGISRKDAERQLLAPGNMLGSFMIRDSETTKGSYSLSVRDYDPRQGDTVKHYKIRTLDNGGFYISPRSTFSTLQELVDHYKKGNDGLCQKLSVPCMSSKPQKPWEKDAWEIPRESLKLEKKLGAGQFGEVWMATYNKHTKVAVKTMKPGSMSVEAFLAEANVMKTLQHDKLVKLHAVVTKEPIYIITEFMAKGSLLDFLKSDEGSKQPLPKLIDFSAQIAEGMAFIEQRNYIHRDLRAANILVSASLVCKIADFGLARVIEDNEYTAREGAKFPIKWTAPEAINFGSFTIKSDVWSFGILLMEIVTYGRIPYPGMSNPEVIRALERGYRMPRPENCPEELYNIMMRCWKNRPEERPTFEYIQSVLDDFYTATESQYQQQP
# Test Protocol: phosphorylation enrichment, bacterial display (enrichment ratio); higher = better substrate or ligand; peptides without Tyr show the background
Overview of reported phosphorylation enrichment across a group of sequences:
Give a plain numeric answer without units written out.

Consider the worked cases shown below.
HLEKKYVHRDS [CSF1R_Y708_R710H]	0.399
KKCTRYIDCDL [ASPA_Y64]	0.41
VFSSDYFSFVL [USP24_Y2138_YF]	1.24
KMKGDYFCFLA [YWHAG_Y130_R132C_YF]	1
LSNPAYCLLLA [DDR1_Y513_R514C]	0.855

Query: phosphorylation enrichment; subject: GPRKAYELSQR [SETX_Y1297]
0.389

Query: phosphorylation enrichment; subject: LTTPTFGDLNH [TUBB_Y222_Y222F]
0.308

Query: phosphorylation enrichment; subject: KMMGRYEMFAR [UPB1_Y362_T359M_YF]
0.402

Query: phosphorylation enrichment; subject: IRTDAYVPAMT [RPE65_Y89_R91P]
0.495

* * *

# System: c-Abl (mouse)
# Test Protocol: phosphorylation enrichment, bacterial display (enrichment ratio); higher = better substrate or ligand; peptides without Tyr show the background
Overview of reported phosphorylation enrichment across a group of sequences:
Give a plain numeric answer without units written out.

WANPEYTGGFK	0.917
TVEDHDFEGGI [TKT_Y563_Y563D_YF]	0.765

Next sequence, please.
Query: phosphorylation enrichment; subject: PKEEPYKMQEK [SLC5A3_Y565_Q566K]
0.969

* * *

# Target Of Assay: Hck (UniProt P08631)
# Test Protocol: phosphorylation enrichment, bacterial display (enrichment ratio); higher = better substrate or ligand; peptides without Tyr show the background
Decision: phosphorylation enrichment compared against 0.5; not below it gives met, below it gives not met.

RHPYFFAPELL [ALB_Y174_Y174F]	met
CNPRRYPVLMS [OR2T1_Y182_L180R]	not met
IPPRRYFRSGV [STAMBP_Y36]	met
TFEPNYGTVKQ [RAPGEF6_Y1447_YF]	met
EKKKFYDAKIE [CASP5_Y104_T106A_YF]	not met

Record SIKDKYVTAVY [KCNH2_Y611_L615V] ; criterion: phosphorylation enrichment no lower than 0.5. Met?
met

Record SVTCTYPPALN [TP53_Y126_S127P] ; criterion: phosphorylation enrichment no lower than 0.5. Met?
met

Record LYRYGYANTSE [SI_Y1233_C1229Y] ; criterion: phosphorylation enrichment no lower than 0.5. Met?
not met

* * *

# Tested on: c-Src
# Test Protocol: phosphorylation enrichment, bacterial display (enrichment ratio); higher = better substrate or ligand; peptides without Tyr show the background
Test Readout: phosphorylation enrichment
Give a plain numeric answer without units written out.

Consider the worked cases shown below.
SQSKGYRPKLY [SIPA1L3_Y1376_G1371S]	0.408
TAALWYIFLHT [ENG_Y612_S615L_YF]	0.508
KANEFYPVVLI [ADAMTS18_Y765_YF]	0.506
TENAGYFFRVS	0.41
NSFKYYMSDDI [ATRX_Y204_C200S]	0.499
CEHRGFLFLAI [TEK_Y897_Y897F_YF]	0.506

Query: phosphorylation enrichment; subject: SIKDKYVMALF [KCNH2_Y611_T613M_YF]
0.393

* * *

# Target Of Assay: FGFR1 (UniProt P11362)
# Sequence (P11362 whole entry, looked up): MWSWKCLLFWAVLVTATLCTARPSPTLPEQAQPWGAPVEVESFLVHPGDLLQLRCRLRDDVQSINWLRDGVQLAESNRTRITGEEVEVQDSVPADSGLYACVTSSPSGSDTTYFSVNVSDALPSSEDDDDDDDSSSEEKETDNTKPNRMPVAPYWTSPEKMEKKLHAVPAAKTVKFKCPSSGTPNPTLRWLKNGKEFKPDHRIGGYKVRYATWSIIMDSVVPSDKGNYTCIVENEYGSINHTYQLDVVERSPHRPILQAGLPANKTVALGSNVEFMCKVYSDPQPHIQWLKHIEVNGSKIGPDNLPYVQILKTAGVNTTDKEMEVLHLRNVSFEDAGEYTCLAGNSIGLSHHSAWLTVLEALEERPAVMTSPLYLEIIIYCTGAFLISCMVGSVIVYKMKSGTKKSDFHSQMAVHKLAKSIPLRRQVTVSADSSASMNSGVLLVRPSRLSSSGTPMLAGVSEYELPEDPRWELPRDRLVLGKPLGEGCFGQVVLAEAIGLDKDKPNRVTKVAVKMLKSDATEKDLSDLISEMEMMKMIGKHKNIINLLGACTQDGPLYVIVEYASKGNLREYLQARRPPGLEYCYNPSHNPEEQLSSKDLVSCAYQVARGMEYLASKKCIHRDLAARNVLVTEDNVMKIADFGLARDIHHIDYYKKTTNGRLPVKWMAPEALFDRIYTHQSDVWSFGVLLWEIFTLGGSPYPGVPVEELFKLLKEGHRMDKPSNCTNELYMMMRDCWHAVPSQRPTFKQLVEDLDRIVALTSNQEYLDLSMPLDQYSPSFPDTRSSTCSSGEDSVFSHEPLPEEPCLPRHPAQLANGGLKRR
# Test Protocol: phosphorylation enrichment, bacterial display (enrichment ratio); higher = better substrate or ligand; peptides without Tyr show the background
Overview of reported phosphorylation enrichment across a group of sequences:

Consider the worked cases shown below.
SWSTSYSGFRF [NKAPL_Y91_YF]	0.637
KQELVYTNKKL [OPTN_Y356]	0.47
ENGPFYASFPP [GDAP2_Y488_T489A_YF]	3.05
GARGRYVMGGP [TNK1_Y277]	0.481

Next sequence, please.
// lookup phosphorylation enrichment | system=FGFR1 (UniProt P11362) | key= QNVADYMRFLM [RPL5_Y207_YF]
0.871

* * *

# Target Of Assay: Fes (UniProt P07332)
# Sequence (P07332 whole entry, looked up): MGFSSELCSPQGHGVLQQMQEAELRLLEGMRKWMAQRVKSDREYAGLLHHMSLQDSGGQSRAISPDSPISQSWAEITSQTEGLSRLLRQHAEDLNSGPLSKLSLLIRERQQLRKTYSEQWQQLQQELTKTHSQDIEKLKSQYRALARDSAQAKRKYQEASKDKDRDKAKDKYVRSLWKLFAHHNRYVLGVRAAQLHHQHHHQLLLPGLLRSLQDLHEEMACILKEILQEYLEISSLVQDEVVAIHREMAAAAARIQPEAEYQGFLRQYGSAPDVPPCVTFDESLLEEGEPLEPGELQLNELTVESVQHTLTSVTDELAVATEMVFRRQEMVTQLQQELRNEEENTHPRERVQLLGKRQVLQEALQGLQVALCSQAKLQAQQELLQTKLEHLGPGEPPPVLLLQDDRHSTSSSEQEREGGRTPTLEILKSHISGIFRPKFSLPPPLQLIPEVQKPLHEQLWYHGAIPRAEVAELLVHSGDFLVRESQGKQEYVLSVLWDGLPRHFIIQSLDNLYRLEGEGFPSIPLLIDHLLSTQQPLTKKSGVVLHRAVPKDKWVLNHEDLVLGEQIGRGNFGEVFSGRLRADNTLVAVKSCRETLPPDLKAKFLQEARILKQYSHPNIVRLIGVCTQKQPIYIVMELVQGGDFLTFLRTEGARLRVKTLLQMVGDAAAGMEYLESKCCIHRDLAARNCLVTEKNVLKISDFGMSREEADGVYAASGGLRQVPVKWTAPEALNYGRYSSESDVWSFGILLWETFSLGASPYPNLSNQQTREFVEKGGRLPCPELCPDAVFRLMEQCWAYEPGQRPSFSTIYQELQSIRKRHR
# Test Protocol: phosphorylation enrichment, bacterial display (enrichment ratio); higher = better substrate or ligand; peptides without Tyr show the background
Test Readout: phosphorylation enrichment
Give a plain numeric answer without units written out.

Consider the worked cases shown below.
GFIISYREEEQ	1.27
IFLENYNAGTF [CFI_Y421_H418L_YF]	0.938
IVRSPYEDLED [VHL_Y185_L184P]	1.16
MSSAGYRAAEG [COL6A3_Y543_T538M]	0.495
AKLKDYYIFNK [CCDC42_Y149]	0.635

Query: phosphorylation enrichment; subject: AVLQLYIFVAT [CFTR_Y1014_P1013L]
1.37

Query: phosphorylation enrichment; subject: SVVVPYDPPEV [TP53_Y220_E221D]
1.08

Query: phosphorylation enrichment; subject: EFSNQYKATIG [RAB7A_Y37_K32E]
0.559

Query: phosphorylation enrichment; subject: SKKSTYQALLD [GANC_Y43]
0.541

* * *

# Target Of Assay: EPHB1 (UniProt P54762)
# Sequence (P54762 whole entry, looked up): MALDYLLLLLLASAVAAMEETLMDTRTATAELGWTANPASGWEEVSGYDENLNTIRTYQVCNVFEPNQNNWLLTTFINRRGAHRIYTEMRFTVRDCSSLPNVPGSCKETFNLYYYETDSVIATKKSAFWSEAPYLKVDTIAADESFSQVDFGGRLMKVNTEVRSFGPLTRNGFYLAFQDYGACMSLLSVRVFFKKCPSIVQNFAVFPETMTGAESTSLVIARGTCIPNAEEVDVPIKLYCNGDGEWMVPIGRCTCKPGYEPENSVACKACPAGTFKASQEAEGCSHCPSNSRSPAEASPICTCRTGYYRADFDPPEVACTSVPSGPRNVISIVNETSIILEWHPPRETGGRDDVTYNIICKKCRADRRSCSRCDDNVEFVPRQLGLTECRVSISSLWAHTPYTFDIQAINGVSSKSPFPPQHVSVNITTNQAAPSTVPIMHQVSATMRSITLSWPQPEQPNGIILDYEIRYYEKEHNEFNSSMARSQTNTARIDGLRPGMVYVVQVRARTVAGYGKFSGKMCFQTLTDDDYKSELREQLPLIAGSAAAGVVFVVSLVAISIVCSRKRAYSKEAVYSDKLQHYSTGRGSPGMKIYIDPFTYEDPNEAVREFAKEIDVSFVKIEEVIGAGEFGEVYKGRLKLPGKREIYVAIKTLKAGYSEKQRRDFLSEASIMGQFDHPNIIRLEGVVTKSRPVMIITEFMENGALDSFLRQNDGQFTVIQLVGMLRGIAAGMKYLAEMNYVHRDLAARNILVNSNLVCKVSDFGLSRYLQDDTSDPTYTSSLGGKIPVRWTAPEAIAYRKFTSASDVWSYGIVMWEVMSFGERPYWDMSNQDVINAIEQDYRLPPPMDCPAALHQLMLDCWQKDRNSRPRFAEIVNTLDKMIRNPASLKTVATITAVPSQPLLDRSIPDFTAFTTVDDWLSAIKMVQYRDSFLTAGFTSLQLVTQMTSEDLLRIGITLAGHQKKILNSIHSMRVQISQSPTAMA
# Test Protocol: phosphorylation enrichment, bacterial display (enrichment ratio); higher = better substrate or ligand; peptides without Tyr show the background
Test Readout: phosphorylation enrichment
Give a plain numeric answer without units written out.

PKGIRYGQGAG [CSRP3_Y73_G72R]	0.502

// lookup phosphorylation enrichment | system=EPHB1 (UniProt P54762) | key= FPKAHYHWLVL [APTX_Y214_R213H_YF]
0.448

// lookup phosphorylation enrichment | system=EPHB1 (UniProt P54762) | key= FTFTSYFMHWV [IGHV1-46_Y51_YF]
0.437

// lookup phosphorylation enrichment | system=EPHB1 (UniProt P54762) | key= MEKEKYVSFIS [JMJD1C_Y596_YF]
0.416

// lookup phosphorylation enrichment | system=EPHB1 (UniProt P54762) | key= GKANRYFSPNF [PTEN_Y336_D331G]
0.379

// lookup phosphorylation enrichment | system=EPHB1 (UniProt P54762) | key= KLADMYGGGED [CDH1_Y876]
0.424

// lookup phosphorylation enrichment | system=EPHB1 (UniProt P54762) | key= VEKEKYVSYIS [JMJD1C_Y596_M591V]
0.487

// lookup phosphorylation enrichment | system=EPHB1 (UniProt P54762) | key= VVKTVYSLQPP [KNSTRN_Y87]
0.571

// lookup phosphorylation enrichment | system=EPHB1 (UniProt P54762) | key= NSAFFYKTAEE [CCT6B_Y250_G247A]
0.521

// lookup phosphorylation enrichment | system=EPHB1 (UniProt P54762) | key= NLGQQYNSPQE [UMPS_Y432]
0.563

* * *

# Target Of Assay: Grb2 SH2 (UniProt P62993)
# Sequence (P62993 whole entry, looked up): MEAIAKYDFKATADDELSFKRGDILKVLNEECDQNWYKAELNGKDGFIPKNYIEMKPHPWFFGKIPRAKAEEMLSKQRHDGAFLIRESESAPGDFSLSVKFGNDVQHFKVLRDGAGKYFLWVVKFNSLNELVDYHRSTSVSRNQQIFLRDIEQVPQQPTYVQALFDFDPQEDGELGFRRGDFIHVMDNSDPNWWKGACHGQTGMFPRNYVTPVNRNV
# Test Protocol: SH2 binding enrichment of the phosphorylated peptide, bacterial display (enrichment ratio); higher = better substrate or ligand; peptides without Tyr show the background
Test Readout: SH2 binding enrichment
Give a plain numeric answer without units written out.

Consider the worked cases shown below.
EKKDLYKAGEQ [CFH_Y1008_V1007L]	0.794
YECKWYIPLTD [BCR_Y756_D752E]	0.704
LQKNIYSEELR [LMNA_Y211_F206L]	0.709
KLASTYREAAT [DEAF1_Y483_H479L]	0.787

Next sequence, please.
// lookup SH2 binding enrichment | system=Grb2 SH2 (UniProt P62993) | key= KKARAYGPGIE [FLNA_Y287]
0.693

* * *

# Target Of Assay: EPHB2 (UniProt P29323)
# Sequence (P29323 whole entry, looked up): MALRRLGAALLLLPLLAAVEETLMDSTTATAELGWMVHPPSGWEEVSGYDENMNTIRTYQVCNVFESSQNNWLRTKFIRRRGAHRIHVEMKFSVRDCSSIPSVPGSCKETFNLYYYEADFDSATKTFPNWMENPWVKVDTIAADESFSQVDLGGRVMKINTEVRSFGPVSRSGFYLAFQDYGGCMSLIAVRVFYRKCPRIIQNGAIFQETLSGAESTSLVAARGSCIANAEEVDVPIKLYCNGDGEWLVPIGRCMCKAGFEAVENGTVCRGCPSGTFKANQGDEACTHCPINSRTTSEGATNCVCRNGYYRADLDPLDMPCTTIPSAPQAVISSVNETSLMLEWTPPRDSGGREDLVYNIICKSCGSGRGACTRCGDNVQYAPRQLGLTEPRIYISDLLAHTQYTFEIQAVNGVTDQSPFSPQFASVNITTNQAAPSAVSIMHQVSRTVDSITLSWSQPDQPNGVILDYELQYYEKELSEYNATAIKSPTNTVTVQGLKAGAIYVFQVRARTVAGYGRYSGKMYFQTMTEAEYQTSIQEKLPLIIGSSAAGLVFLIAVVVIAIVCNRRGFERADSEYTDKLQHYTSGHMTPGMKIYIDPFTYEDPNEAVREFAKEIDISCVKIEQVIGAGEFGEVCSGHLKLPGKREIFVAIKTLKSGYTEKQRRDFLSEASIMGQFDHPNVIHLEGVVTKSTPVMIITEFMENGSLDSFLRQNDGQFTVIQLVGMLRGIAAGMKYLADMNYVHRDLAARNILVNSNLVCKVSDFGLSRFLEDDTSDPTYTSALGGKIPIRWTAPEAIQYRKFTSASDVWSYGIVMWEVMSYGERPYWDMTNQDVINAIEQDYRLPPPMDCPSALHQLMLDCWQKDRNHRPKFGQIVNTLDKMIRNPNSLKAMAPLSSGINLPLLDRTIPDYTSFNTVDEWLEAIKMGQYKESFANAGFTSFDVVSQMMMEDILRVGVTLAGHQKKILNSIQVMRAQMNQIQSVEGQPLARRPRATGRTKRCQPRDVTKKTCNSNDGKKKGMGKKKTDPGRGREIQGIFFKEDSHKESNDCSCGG
# Test Protocol: phosphorylation enrichment, bacterial display (enrichment ratio); higher = better substrate or ligand; peptides without Tyr show the background
Overview of reported phosphorylation enrichment across a group of sequences:

KLADIYQAELR [GFAP_Y116_V115I]	0.595
GDPTEYYSTAI [IGSF22_Y501]	0.555
RQLEIYRASRP [ERCC4_Y594]	0.254
QGGRCYMMIVD [GAA_Y438_R437C]	1.29
ERPGVHTNVVE [F11_Y608_Y608H]	0.769
ARAGEYGAEAL [HBA1_Y25_H21R]	0.469
VVQGIYGYHHY [UFSP2_Y285]	8.76
GRQWNYVASMS [KLHL4_Y552]	0.549

Query: phosphorylation enrichment; subject: LQLLGDRPVYS [CHST6_Y358_Y358D]
2.16

Query: phosphorylation enrichment; subject: GEDEPYAEPYA [APBA1_Y183_S184A]
0.694

Query: phosphorylation enrichment; subject: RAIELCNDKEK [OTULIN_Y244_Y244C]
0.76

* * *

# Target Of Assay: c-Src SH2
# Test Protocol: SH2 binding enrichment of the phosphorylated peptide, bacterial display (enrichment ratio); higher = better substrate or ligand; peptides without Tyr show the background
Overview of reported SH2 binding enrichment across a group of sequences:
Give a plain numeric answer without units written out.

Consider the worked cases shown below.
KMMGRYEMFAR [UPB1_Y362_T359M_YF]	1.65
TKVTFYKQPMF [GBA_Y451_D448V]	0.453
IVRSLYEDPED [VHL_Y185_L188P]	3.15

Query: SH2 binding enrichment; subject: PLDGEYFSLQI [TP53_Y327_T329S]
0.387

Query: SH2 binding enrichment; subject: LSSETYVKSYT [F5_Y2149_M2148T]
0.555

Query: SH2 binding enrichment; subject: VLTSKHRGGGG [HBA1_Y141_Y141H]
0.823
